# credit: patent US10544143B2

# IC50 annotations
Biological target: human TLR7 (Homo sapiens (Human), UniProt Q9NYK1)
Sequence (Q9NYK1 27-1049): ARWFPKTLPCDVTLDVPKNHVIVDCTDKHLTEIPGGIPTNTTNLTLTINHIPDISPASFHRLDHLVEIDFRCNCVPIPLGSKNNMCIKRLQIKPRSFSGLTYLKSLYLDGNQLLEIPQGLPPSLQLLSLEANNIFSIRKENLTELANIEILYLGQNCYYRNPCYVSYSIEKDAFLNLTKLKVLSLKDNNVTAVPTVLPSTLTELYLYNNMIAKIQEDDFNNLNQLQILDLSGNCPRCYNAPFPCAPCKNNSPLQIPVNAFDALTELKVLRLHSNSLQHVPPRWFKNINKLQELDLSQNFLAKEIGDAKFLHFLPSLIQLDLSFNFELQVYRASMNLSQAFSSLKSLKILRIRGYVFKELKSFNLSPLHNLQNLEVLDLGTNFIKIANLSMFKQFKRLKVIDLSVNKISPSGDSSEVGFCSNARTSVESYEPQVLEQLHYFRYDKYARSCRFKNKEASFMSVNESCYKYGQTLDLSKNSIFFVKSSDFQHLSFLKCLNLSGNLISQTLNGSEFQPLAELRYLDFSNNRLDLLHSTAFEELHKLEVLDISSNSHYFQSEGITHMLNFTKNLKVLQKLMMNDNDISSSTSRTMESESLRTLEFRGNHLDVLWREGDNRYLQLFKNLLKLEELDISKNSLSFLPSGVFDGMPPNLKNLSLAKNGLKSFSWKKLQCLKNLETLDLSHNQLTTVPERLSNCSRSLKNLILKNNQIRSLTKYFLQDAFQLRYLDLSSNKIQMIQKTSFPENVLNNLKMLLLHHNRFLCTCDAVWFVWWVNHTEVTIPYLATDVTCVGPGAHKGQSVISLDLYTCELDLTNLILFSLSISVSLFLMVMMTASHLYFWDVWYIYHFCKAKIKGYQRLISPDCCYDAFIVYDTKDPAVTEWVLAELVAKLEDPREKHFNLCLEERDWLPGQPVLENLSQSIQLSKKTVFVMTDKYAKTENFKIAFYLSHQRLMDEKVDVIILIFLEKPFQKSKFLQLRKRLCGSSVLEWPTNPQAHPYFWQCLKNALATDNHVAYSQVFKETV
Experiment: TLR7 inhibition reporter assay (HEK-Blue SEAP)
Type: cell-based
Conditions: HEK-Blue human TLR7 cells, gardiquimod 7.5 μM

[
  {
    "Compound": "Cc1c(-c2[nH]c3ccc(N4C[C@H](C)NC[C@H]4C)nc3c2C(C)C)cn2ncnc2c1C",
    "Test system": "human TLR7 (Homo sapiens (Human), UniProt Q9NYK1)",
    "Units": "nM",
    "IC50": 0.8
  },
  {
    "Compound": "[2H]C([2H])([2H])N(CC(=O)N1C([2H])([2H])C([2H])([2H])N(c2ccc3[nH]c(-c4cn5ncnc5c(C)c4C)c(C(C)C)c3n2)C([2H])([2H])C1([2H])[2H])C([2H])([2H])[2H] (single isomer, unassigned)",
    "Test system": "human TLR7 (Homo sapiens (Human), UniProt Q9NYK1)",
    "Units": "nM",
    "IC50": 0.97
  },
  {
    "Compound": "Cc1c(-c2[nH]c3ccc(N4C[C@@H](C)N(C(=O)CN(C)C)C[C@@H]4C)nc3c2C(C)C)cn2ncnc2c1C",
    "Test system": "human TLR7 (Homo sapiens (Human), UniProt Q9NYK1)",
    "Units": "nM",
    "IC50": 0.38
  },
  {
    "Compound": "Cc1c(-c2[nH]c3ccc(N4CCN(C(=O)[C@H](C)N(C)C)CC4)nc3c2C(C)C)cn2ncnc2c1C",
    "Test system": "human TLR7 (Homo sapiens (Human), UniProt Q9NYK1)",
    "Units": "nM",
    "IC50": 0.51
  }
]
